This collection of values is drawn from patent US20030068675.

tested-target: T1, ZFP SBS#713 (synthetic)
T1 chain: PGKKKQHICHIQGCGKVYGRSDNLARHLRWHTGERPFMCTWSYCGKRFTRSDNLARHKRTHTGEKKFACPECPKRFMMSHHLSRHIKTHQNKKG
test-method-notes: EMSA
condition-info: tags: MBP fusion
attribute-measured: Kd (nM)
Give bare numbers, in nM.

GGTGAGGAGT (dsDNA) DNA 1: GGTGAGGAGT DNA 2: ACTCCTCACC yielded Kd of 0.15
